Below: a set of entries, each annotated with reported pIC50.
Target: P2X7 (Homo sapiens, UniProt Q99572)
Experiment: YO-PRO-1 dye uptake assay in U373 cells stably expressing P2X7
Type: cell-based
Set-up: The complete open reading frame of human P2X7 was amplified from Incyte clone 148057; expressed in transfected cells
Details: dye uptake through P2X7, U373 cells, 300 μM BzATP, 5 μM YO-PRO-1, test compounds 30 nM to 3 μM; read-out: IC50
Experimental: Following a 24-hr exposure to DNA, cells were trypsinized and re-seeded at low density in the presence of […] G418. After incubation for 2 weeks, isolated clones were selected with cloning cylinders and replated in […] G418. Cell clones were then expanded. […] U373 cells stably expressing P2X7 were used to screen drugs via a dye uptake assay. […] Fluorescence in the presence of test substances was compared to that in the absence of test substances (control).
Counter-ions that a name gives are not always drawn.
pIC50 is defined as minus the log10 of a concentration measured in mol/L.

Some molecules with recorded pIC50:
Fc1cccc(Cl)c1CC1=N[C@@H](c2ccccc2)[C@@H](c2ccccc2)N1 [trifluoroacetate] = 6.08
c1ccc(CCCC2=N[C@H](c3ccccc3)[C@H](c3ccccc3)N2)cc1 [trifluoroacetate] = 6.27
C[C@@]1(c2ccccc2)N=C(COCC2CCCC2)N[C@@H]1c1ccccc1 (relative stereo) [hydrochloride] = 6.71

// map CC(C1=N[C@@H](c2ccccc2)[C@@H](c2ccccc2)N1)c1ccc(Cl)cc1 (relative stereo) [trifluoroacetate] to recorded pIC50 (system: P2X7 (Homo sapiens, UniProt Q99572))
6.37

Can you handle Fc1ccccc1[C@H]1NC(NCc2ccccc2)=N[C@H]1c1ccccc1F [hydrochloride] next?
6.27

###

Target: P2X7 (Homo sapiens, UniProt Q99572)
Sequence (Q99572 1-595): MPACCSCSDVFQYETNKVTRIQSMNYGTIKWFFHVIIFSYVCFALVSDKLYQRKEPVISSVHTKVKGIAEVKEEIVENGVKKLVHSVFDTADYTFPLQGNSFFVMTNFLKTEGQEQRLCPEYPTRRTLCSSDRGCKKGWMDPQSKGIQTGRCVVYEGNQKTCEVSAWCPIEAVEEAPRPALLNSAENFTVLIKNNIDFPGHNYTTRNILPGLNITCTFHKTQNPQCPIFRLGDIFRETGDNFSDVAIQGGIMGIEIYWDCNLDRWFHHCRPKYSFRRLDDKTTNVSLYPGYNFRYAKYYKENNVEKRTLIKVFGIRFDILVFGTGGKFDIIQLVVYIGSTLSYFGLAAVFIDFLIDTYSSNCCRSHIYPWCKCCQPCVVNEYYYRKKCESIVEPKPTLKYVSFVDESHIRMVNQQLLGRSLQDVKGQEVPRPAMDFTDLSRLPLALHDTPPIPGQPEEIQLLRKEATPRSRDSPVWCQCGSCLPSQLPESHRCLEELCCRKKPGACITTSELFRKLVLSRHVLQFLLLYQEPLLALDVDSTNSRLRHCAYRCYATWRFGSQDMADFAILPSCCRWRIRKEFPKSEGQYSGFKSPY
Assay: YO-PRO-1 dye uptake assay in U373 cells stably expressing P2X7
Format: cell-based
Parameters: The complete open reading frame of human P2X7 was amplified from Incyte clone 148057; expressed in transfected cells
Settings: dye uptake through P2X7, U373 cells, 300 μM BzATP, 5 μM YO-PRO-1, test compounds 30 nM to 3 μM; read-out: IC50
recordedMetric: pIC50
pIC50 is defined as minus the log10 of a concentration measured in mol/L.

Some compounds with recorded pIC50:
Fc1ccccc1CCC1=N[C@@H](c2ccccc2)[C@@H](c2ccccc2)N1 [trifluoroacetate] = 6.79
Fc1cccc([C@H]2NC(CCc3ccccc3Cl)=N[C@H]2c2cccc(F)c2)c1 = 6.85
Fc1ccc(CC2=N[C@@H](c3ccccc3)[C@@H](c3ccccc3)N2)cc1F [trifluoroacetate] = 7.62

API: the following record is the query input.
Quick one: pIC50 of Fc1ccc(CCC2=N[C@@H](c3cccc(F)c3)[C@@H](c3cccc(F)c3)N2)cc1 [trifluoroacetate] ?
6.24
